Target: T1, human Trop-2 expressed on cell surface (human, UniProt P09758 27-323)
T1 sequence (looked up): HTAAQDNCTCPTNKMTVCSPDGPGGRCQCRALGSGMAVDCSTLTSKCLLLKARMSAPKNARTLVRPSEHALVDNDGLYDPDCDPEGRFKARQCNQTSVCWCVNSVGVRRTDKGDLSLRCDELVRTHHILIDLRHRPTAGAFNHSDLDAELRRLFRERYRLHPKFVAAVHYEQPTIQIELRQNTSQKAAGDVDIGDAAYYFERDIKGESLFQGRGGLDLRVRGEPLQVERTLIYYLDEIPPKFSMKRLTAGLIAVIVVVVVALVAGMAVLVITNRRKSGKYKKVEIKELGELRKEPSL
Test: cell-based or functional assay
Recorded Internalization %, MCF-7, 0.5 µg/ml, 2 h for the following binders

# binder, Internalization %, MCF-7, 0.5 µg/ml, 2 h, %
measured = [
    ("66A1 (antibody, V domains shown, Rabbit-derived clone; LEM construct: VH + rabbit IgG CH1 + human IgG1 CH2-CH3) VH: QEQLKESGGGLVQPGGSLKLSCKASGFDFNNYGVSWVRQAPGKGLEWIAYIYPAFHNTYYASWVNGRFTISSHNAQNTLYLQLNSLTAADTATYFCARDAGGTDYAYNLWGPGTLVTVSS VL: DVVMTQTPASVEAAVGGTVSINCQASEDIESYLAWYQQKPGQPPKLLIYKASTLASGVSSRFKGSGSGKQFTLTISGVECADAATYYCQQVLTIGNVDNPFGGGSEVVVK", 45),
    ("63H3 (antibody, V domains shown, Rabbit-derived clone; LEM construct: VH + rabbit IgG CH1 + human IgG1 CH2-CH3) VH: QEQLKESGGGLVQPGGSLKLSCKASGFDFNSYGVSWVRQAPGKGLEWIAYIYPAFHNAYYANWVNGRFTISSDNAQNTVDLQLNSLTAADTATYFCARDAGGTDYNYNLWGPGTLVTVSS VL: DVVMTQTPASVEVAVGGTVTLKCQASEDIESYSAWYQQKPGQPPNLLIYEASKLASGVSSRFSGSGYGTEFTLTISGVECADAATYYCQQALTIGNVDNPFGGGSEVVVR", 37),
    ("5D4 (antibody, V domains shown, Rabbit-derived clone; LEM construct: VH + rabbit IgG CH1 + human IgG1 CH2-CH3) VH: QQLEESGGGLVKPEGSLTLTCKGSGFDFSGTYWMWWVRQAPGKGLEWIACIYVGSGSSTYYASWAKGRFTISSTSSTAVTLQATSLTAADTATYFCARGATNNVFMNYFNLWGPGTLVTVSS VL: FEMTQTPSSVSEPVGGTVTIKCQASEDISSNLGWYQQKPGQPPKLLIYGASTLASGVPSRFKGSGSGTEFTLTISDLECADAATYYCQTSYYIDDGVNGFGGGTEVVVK", 59),
    ("5D4-1 (antibody, V domains shown) VH: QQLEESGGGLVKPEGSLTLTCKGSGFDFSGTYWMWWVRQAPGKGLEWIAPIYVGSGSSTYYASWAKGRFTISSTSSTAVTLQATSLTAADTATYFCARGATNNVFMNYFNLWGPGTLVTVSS VL: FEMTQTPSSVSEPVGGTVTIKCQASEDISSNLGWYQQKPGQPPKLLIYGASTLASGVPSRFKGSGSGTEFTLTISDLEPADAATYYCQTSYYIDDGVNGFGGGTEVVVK", 56),
]
